Data origin: patent EP0450066B1

# System: platelets
# Procedure details: Platelet aggregation inhibitory activity (method by Born et al., platelet rich plasma, ADP or collagen as inducer)
# Format: cell-based
# Assay setup: rabbit PRP, 400,000 platelets/µl, 37°C; aggregation induced by ADP, final concentration 7.5 µM; listed as 42; read-out: IC50 (µM) ADP
Recorded metric: IC50 (µM)
Please state the figure in µM; there is no need to write the unit.

Look up IC50 with platelets for this molecule: `CC(=O)NCCN(CC1CCCCCCC1)C(=O)CCCCOc1ccc2[nH]c(=O)ccc2c1`
1.9

----------
# System: platelets
# Procedure details: Platelet aggregation inhibitory activity (method by Born et al., platelet rich plasma, ADP or collagen as inducer)
# Assay type: cell-based
# Assay setup: rabbit PRP, 400,000 platelets/µl, 37°C; aggregation induced by collagen, final concentration 20 µg/ml; listed as 28, oxalate; read-out: IC50 (µM) Collagen
Where a name gives a salt, the structure may show the parent alone.
Recorded metric: IC50 (µM)
Please state the figure in µM; there is no need to write the unit.

Look up IC50 with platelets for this molecule: CCN(CC)CCCN(CC1CCCCCCC1)C(=O)CCCCOc1ccc2[nH]c(=O)ccc2c1 [Test compound 17, oxalate]
1.2

----------
# System: platelets
# Procedure details: Platelet aggregation inhibitory activity (method by Born et al., platelet rich plasma, ADP or collagen as inducer)
# Type: cell-based
# Assay setup: rabbit PRP, 400,000 platelets/µl, 37°C; aggregation induced by collagen, final concentration 20 µg/ml; listed as 29, oxalate; read-out: IC50 (µM) Collagen
Recorded metric: IC50 (µM)
Please state the figure in µM; there is no need to write the unit.

What measured IC50 goes with CCN(CC)CCCCN(CC1CCCCCCC1)C(=O)CCCCOc1ccc2[nH]c(=O)ccc2c1.O=C(O)C(=O)O [Test compound 18, oxalate] ?
3.7

----------
# System: mongrel dogs
# Procedure details: Increase in heart rate in anesthetized mongrel dogs
# Type: in vivo
# Assay setup: mongrel dogs under pentobarbital sodium anesthesia, artificial breathing; 30 µg/kg through cannula in femoral artery
In this section we review reported Maximum increase in heart rate (beats/min) (Administration amount = 30 µg/kg) values for a set of compounds.
Please state the figure in beats/min; there is no need to write the unit.

What measured Maximum increase in heart rate (beats/min) (Administration amount = 30 µg/kg) goes with `CCN(CC)C[C@H](C)N(CC1CCCCCCC1)C(=O)CCCCOc1ccc2[nH]c(=O)ccc2c1` ?
7

Try O=C(CCCCOc1ccc2[nH]c(=O)ccc2c1)N(CCN1CCC(O)C1)CC1CCCCCCC1.O=C(O)C(=O)O (stereo not drawn) next.
5

Try `O=C(CCCCOc1ccc2[nH]c(=O)ccc2c1)N(CCS)CC1CCCCC1` next.
11

***
What measured Maximum increase in heart rate (beats/min) (Administration amount = 30 µg/kg) goes with `O=C(CCCCOc1ccc2[nH]c(=O)ccc2c1)N(CCn1ccnc1)CC1CCCCC1` ?
12

Try `CCN(CC)CCCCN(CC1CCCCCCC1)C(=O)CCCCOc1ccc2[nH]c(=O)ccc2c1` next.
5

Try `CCN(CC)CCCCN(CC1CCCCCCC1)C(=O)CCCCOc1ccc2[nH]c(=O)ccc2c1.O=C(O)C(=O)O` next.
2

----------
# Test system: mongrel dogs
# Procedure details: Increase in heart rate in anesthetized mongrel dogs
# Format: in vivo
# Assay setup: mongrel dogs under pentobarbital sodium anesthesia, artificial breathing; 30 µg/kg through cannula in femoral artery
# Procedure: Increase in heart rate as well as hypotensive activity of test compounds were measured as follows by using mongrel dogs (body weight = 10-20 kg). […] Blood pressure was measured by using a blood pressure transducer (P23XL, manufactured by Gould Statham Instruments, Inc.) via a cannula inserted into the femoral artery of the mongrel dog. Heart rate was measured via a tachometer, based on the pulse wave of the blood pressure. […]
Recorded metric: Maximum increase in heart rate (beats/min) (Administration amount = 30 µg/kg)
Please state the figure in beats/min; there is no need to write the unit.

What measured Maximum increase in heart rate (beats/min) (Administration amount = 30 µg/kg) goes with O=C(CCCCOc1ccc2[nH]c(=O)ccc2c1)N(CCN1CCCCC1CO)CC1CCCCCCC1 (stereo not shown) ?
6

Try `CCN(CC)CCN(CC1CCCCCCC1)C(=O)CCCCOc1ccc2c(c1)CCC(=O)N2` next.
4

Try CC1CCCC(C)N1CCN(CC1CCCCCCC1)C(=O)CCCCOc1ccc2[nH]c(=O)ccc2c1 (stereo not shown) next.
0

Try `CCN(CC)CCN(CC1CCCCCCC1)C(=O)CCCCOc1ccc2[nH]c(=O)ccc2c1` next.
7
